Data provenance is PubChem BioAssay (NCI).

Below: a set of entries, each annotated with reported growth.
test system: OVCAR-3 ovarian; assay: NCI-60 one-dose screen, 48 h (100 = growth as untreated, 0 = no growth, -100 = all killed); conditions: 10 µM
This is part of a sample that, as a whole, favours compounds with a hit. Of some 83,000 tested, about 20% had one in any assay.
Record the value in %, omitting the unit from your answer.

The following compounds have reported results that may help.
compound	quantitativeReadout
COc1ccccc1C(=O)NNC(=O)CSc1nc2c(c(=O)[nH]1)CCCC2	102
O=C(Nc1ccc(F)c(Cl)c1)c1cc(-c2ccc(F)cc2F)ccc1O	9.88
COc1cc2c3c(n(CCCN4CCOCC4)c(=O)c2cc1OC)-c1nc2c(cc1C3=O)OCO2	8.69
O=c1c2ccccc2nc(COc2ccccc2)n1/N=C/c1ccc(N2CCCC2)cc1	105
CS(=O)(=O)Nc1ccc(-c2ccc3c(c2)ncn3-c2ccc(NC(=O)Nc3ccc(Br)cc3)cc2)cc1	5.29

Challenge: API: value(readout=growth, system=OVCAR-3 ovarian) for record `C=C(C)[C@@H]1CC[C@]2(COP(=O)(OCC)OCC)CC[C@]3(C)[C@H](CC[C@@H]4[C@@](C)(CCCN)[C@H](C(=C)C)CC[C@]43C)[C@@H]12`
Response given: 24.2

Challenge: API: value(readout=growth, system=OVCAR-3 ovarian) for record `O=c1[nH]n(C(=S)N/N=C/c2ccc(F)cc2)c(=O)c2ccccc12`
Response given: 32.5

Challenge: API: value(readout=growth, system=OVCAR-3 ovarian) for record CN1C(=O)N(C)C2SC(N/N=C/c3ccccc3)=NC21 (centres undefined)
Response given: 25.1

Challenge: API: value(readout=growth, system=OVCAR-3 ovarian) for record `COc1ccc(-c2nc(S(=O)(=O)c3ccc(C)cc3)c(S(C)(=O)=O)o2)cc1`
Response given: -92.4
